Field: IC50. Provide a value for each of the molecules that follow.
STUDY SYSTEM: human PI3Kα (PIK3CA/PIK3R1) (Homo sapiens, UniProt P42336)
Construct: purchased ProQinase, Germany 1161‐1165‐1
Sequence (P42336 whole entry): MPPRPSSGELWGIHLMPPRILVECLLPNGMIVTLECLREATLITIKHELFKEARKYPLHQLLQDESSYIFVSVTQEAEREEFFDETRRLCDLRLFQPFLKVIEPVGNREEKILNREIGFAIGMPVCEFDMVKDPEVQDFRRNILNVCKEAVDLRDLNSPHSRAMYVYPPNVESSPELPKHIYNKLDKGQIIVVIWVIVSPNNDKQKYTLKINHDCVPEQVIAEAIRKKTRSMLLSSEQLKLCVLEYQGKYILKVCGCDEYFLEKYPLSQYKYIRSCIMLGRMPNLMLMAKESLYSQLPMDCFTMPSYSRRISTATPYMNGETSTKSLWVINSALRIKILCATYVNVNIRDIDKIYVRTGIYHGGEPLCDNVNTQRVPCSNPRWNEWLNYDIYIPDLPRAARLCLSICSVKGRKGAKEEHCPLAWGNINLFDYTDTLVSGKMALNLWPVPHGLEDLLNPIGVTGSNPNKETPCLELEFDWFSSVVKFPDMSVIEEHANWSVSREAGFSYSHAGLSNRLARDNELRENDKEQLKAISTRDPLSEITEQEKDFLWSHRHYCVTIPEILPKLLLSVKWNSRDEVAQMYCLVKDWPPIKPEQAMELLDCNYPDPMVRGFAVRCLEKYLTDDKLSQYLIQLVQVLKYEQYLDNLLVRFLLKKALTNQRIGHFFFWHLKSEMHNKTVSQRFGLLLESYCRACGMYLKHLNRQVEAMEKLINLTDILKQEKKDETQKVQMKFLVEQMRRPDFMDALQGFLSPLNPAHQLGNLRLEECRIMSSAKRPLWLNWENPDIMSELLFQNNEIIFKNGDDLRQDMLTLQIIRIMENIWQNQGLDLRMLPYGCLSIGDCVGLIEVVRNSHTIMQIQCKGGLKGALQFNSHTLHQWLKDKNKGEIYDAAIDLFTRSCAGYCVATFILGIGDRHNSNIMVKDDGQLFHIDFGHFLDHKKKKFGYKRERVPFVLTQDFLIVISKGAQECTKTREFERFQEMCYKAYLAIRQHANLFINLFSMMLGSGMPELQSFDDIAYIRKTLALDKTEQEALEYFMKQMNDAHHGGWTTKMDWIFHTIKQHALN
Sequence (P27986 whole entry partner): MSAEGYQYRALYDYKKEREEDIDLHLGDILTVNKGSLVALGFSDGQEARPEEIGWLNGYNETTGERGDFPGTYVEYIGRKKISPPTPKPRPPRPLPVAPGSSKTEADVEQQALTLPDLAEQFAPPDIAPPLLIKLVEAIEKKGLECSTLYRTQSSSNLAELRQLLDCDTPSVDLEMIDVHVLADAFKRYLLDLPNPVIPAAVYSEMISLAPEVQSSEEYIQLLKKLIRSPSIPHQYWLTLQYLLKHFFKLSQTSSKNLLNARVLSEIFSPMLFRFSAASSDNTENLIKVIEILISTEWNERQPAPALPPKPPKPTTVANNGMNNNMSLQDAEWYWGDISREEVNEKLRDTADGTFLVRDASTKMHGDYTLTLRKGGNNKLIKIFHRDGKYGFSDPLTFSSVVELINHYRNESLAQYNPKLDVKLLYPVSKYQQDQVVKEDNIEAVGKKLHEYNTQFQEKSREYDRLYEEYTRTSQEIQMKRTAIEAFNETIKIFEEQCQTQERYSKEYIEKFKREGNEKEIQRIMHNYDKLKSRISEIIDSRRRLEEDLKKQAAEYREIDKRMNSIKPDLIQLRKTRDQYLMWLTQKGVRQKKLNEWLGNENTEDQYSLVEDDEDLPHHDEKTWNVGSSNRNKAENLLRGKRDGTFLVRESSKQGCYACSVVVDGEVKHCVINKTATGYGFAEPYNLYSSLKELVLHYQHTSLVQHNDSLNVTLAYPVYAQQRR
METHOD: lipid kinase assay (ADP-Glo), PI3Kα
Type: biochemical
COND: Table 2; mean of at least three determinations, 95 % confidence intervals; read-out: IC50 PI3Kα
Answers are plain numbers, in µM.

Illustrative cases are given below, each with its answer.
Any idea what its IC50 is? The molecule is COc1cccc(-n2cc(-c3cccc4c(=O)cc(N5CCOCC5)[nH]c34)nn2)c1
1.3

Look up IC50: O=c1cc(N2CCOCC2)[nH]c2c(-c3cn(Cc4ccccc4)nn3)cccc12
2.65

Let us move to another entry and its IC50.
IC50 lookup needed for O=c1cc(N2CCOCC2)[nH]c2c(-c3cn(-c4ccccc4O)nn3)cccc12 , thanks.
0.26

* * *

STUDY SYSTEM: hPI3Kγ (PIK3CG) (Homo sapiens)
Construct: purchased ProQinase, Germany 1163‐0000‐1
Sequence (P48736 whole entry): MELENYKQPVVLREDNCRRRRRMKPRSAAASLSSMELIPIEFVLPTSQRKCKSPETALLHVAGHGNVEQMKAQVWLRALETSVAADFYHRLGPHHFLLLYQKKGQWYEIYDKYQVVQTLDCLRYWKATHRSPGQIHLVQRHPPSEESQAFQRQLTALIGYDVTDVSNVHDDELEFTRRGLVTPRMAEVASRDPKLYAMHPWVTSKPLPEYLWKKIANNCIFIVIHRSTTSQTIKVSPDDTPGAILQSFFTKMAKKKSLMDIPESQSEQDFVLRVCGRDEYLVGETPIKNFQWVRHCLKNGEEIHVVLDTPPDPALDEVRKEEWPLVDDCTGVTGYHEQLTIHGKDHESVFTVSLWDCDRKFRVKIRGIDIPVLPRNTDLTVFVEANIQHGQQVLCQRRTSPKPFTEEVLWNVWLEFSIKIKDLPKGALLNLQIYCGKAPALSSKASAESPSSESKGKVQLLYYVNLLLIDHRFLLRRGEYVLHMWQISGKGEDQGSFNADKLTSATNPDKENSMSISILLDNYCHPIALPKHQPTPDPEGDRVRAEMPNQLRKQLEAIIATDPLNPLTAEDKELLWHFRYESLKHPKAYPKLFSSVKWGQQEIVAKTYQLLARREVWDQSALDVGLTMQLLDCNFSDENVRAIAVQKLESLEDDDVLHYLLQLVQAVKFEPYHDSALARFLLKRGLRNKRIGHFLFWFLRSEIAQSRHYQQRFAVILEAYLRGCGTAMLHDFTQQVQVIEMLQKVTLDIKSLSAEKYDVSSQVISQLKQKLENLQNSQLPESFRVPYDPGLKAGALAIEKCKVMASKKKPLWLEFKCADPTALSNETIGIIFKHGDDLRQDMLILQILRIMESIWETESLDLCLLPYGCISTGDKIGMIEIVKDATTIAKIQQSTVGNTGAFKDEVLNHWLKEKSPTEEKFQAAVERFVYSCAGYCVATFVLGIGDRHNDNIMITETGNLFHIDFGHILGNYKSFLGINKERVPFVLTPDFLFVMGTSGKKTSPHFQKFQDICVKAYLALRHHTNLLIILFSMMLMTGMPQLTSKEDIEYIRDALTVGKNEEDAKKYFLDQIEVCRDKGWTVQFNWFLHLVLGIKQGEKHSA
METHOD: lipid kinase assay (ADP-Glo), PI3Kγ
Format: biochemical
COND: Table 2; mean of at least three determinations, 95 % confidence intervals
pIC50: −log10 of the molar value.
We use 6 as the dividing line for pIC50: on or above the line is 1 (yes), below is 0 (no).

See these solved cases before continuing.
Please indicate if the recorded pIC50 for O=C(O)c1cccc(Cn2cc(-c3cccc4c(=O)cc(N5CCOCC5)[nH]c34)nn2)c1 meets or exceeds 6.
1 (yes)

Could you verify whether the entry Cc1cc(F)ccc1Oc1cccc2c(=O)cc(N3CCOCC3)[nH]c12 [TGX155, reference compound] shows pIC50 of no less than 6?
0 (no)

For this compound, is measured pIC50 6 or higher? O=C(O)c1ccc(-n2cc(-c3cccc4c(=O)cc(N5CCOCC5)[nH]c34)nn2)cc1
1 (yes)

Then there is this compound:
Is pIC50 for O=c1cc(N2CCOCC2)[nH]c2c(-c3cn(-c4ccccc4)nn3)cccc12 at or above 6?
0 (no)

* * *

STUDY SYSTEM: human PI3Kα (PIK3CA/PIK3R1) (Homo sapiens)
Construct: purchased ProQinase, Germany 1161‐1165‐1
METHOD: lipid kinase assay (ADP-Glo), PI3Kα
Format: biochemical
COND: Table 2; mean of at least three determinations, 95 % confidence intervals; read-out: IC50 PI3Kα
MEASURED ENDPOINT: IC50 (µM)
Give bare numbers, in µM.

Known IC50 results, listed for orientation:
Record request: IC50 value, item O=C(O)c1cccc(Cn2cc(-c3cccc4c(=O)cc(N5CCOCC5)[nH]c34)nn2)c1
0.018

Give the measured IC50 of O=c1cc(N2CCOCC2)[nH]c2c(-c3cn(-c4ccccc4)nn3)cccc12 .
0.74

---
If you can, please state the reported IC50 value of O=C(O)c1ccc(-n2cc(-c3cccc4c(=O)cc(N5CCOCC5)[nH]c34)nn2)cc1 .
0.32

* * *

Could you please report measured pIC50 for the items listed next?
STUDY SYSTEM: hPI3Kβ (PIK3CB wt/PIK3R1) (Homo sapiens)
Sequence (P42338 whole entry, one chain of several): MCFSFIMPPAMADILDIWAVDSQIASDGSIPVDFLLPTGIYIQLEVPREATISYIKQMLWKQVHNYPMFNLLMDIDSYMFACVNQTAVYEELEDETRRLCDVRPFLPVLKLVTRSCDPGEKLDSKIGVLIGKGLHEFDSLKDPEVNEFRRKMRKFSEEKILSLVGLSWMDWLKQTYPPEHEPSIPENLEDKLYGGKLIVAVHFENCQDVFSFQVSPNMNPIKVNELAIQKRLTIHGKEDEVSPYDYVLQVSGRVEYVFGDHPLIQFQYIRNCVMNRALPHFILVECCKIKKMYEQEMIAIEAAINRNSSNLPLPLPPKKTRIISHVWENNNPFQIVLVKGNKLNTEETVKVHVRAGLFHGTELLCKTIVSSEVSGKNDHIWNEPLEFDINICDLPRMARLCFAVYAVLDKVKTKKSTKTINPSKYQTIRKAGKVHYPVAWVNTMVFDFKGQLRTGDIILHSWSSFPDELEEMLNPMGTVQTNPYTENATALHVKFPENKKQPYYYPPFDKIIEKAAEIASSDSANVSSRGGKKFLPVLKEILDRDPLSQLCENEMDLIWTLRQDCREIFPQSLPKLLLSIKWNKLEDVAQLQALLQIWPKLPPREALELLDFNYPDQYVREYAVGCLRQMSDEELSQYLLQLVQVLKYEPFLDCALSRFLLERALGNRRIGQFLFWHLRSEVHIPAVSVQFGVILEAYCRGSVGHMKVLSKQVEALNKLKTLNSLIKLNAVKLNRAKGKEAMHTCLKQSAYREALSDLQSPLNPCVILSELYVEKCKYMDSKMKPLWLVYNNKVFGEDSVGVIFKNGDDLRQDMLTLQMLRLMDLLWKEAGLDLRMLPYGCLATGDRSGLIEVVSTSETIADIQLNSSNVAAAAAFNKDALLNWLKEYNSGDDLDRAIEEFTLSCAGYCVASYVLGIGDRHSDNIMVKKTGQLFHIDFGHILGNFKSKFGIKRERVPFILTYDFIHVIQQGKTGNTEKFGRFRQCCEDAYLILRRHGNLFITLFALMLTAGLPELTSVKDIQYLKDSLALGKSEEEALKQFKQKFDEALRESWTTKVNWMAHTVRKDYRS
METHOD: lipid kinase assay (ADP-Glo), PI3Kβ
COND: Table 2; mean of at least three determinations, 95 % confidence intervals
One number for each entry, as −log10 of the molar value.

Please review the following examples before continuing.
For O=c1cc(N2CCOCC2)[nH]c2c(-c3cn(Cc4ccccc4)nn3)cccc12 , what is its reported pIC50?
7.00

Which pIC50 is reported for this compound? O=c1cc(N2CCOCC2)[nH]c2c(-c3cn(-c4ccccc4O)nn3)cccc12
5.96

Requested field: pIC50. Item: Cc1cc(F)ccc1Oc1cccc2c(=O)cc(N3CCOCC3)[nH]c12 [TGX155, reference compound]
7.02

// next item, pIC50 requested
Returns the measured pIC50 for the input compound. Input: O=C(O)c1cccc(Cn2cc(-c3cccc4c(=O)cc(N5CCOCC5)[nH]c34)nn2)c1
7.23

* * *

STUDY SYSTEM: human PI3Kα (PIK3CA/PIK3R1) (Homo sapiens)
Construct: purchased ProQinase, Germany 1161‐1165‐1
METHOD: lipid kinase assay (ADP-Glo), PI3Kα
Type: biochemical
COND: Table 3, analogues of 37; mean of at least three determinations, 95 % confidence intervals; read-out: IC50 against PI3Kα
pIC50: −log10 of the molar value.
MEASURED ENDPOINT: pIC50

Would you mind giving pIC50 for every molecule in the list below?
1. CS(=O)(=O)NC(=O)c1cccc(Cn2cc(-c3cccc4c(=O)cc(N5CCOCC5)[nH]c34)nn2)c1 [Compound 58]
2. O=C(O)CCCn1cc(-c2cccc3c(=O)cc(N4CCOCC4)[nH]c23)nn1 [Compound 55]

1: < 6.00; 2: < 6.00

Okay, here is my list. What is pIC50 for each of these?
1. O=C(O)CCCCCn1cc(-c2cccc3c(=O)cc(N4CCOCC4)[nH]c23)nn1 [Compound 57]
2. O=c1cc(N2CCOCC2)[nH]c2c(-c3cn(Cc4cccc(-c5nnn[nH]5)c4)nn3)cccc12 [Compound 63]
3. O=C(O)CCCCn1cc(-c2cccc3c(=O)cc(N4CCOCC4)[nH]c23)nn1 [Compound 56]

< 6.00
< 6.00
< 6.00
